# assayed.system: 253BH10 trispecific protein
# Sequence (chain, as listed by the source limits assumed, form in doubt): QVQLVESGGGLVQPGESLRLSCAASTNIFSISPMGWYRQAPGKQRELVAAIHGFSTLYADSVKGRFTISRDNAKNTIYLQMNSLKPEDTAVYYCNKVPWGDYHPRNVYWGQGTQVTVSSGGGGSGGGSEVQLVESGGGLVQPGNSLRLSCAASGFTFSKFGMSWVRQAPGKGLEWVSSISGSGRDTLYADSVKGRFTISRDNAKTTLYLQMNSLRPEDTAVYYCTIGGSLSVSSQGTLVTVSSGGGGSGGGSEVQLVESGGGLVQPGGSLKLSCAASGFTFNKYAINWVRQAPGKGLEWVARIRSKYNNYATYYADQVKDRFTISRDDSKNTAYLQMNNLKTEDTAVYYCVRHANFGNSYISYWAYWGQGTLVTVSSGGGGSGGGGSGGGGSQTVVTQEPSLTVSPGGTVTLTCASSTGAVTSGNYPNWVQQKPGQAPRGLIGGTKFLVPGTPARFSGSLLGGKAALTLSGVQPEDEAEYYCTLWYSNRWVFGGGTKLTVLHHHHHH
# experiment.description: affinity measurement, method not stated
value.kind: Kd (nM)
Give the value, in units of nM, as a plain number.

Any idea what Kd was measured for human BCMA protein (receptor) MLQMAGQCSQNEYFDSLLHACIPCQLRCSSNTPPLTCQRYCNASVTNSVKGTNA ?
27.7

Where do these numbers come from? They come from patent US20240254250A1.
